- Target Or Test System: HEK-EBNA cells expressing a PG EP2 receptor subtype (Homo sapiens, UniProt P43116)
- Construct: expressed in transfected cells; host or cells: HEK-EBNA
- Sequence (P43116 whole entry): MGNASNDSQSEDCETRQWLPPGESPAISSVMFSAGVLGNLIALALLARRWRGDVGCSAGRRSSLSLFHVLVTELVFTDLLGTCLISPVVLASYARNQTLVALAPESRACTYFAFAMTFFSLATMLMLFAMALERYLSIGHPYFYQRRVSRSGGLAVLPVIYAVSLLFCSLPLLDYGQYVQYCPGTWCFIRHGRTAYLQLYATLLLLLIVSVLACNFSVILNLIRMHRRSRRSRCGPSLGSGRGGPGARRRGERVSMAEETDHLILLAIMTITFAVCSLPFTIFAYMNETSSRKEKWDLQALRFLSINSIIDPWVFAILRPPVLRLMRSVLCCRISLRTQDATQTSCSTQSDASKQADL
- Assay Overview: cAMP assay, EP2
- Type: cell-based
- Applied Conditions: unit inferred; read-out: EP2 data cAMP EC50
Property Name: EC50 (nM)

Below, each entry is followed by its recorded EC50 result.
1. CCCCCC(O)c1ccc(N2C(=O)CC[C@@H]2/C=C/Cc2ccc(C(=O)O)s2)cc1 (some centres unmarked) [drawing 144] | 15
2. CCCC(O)c1ccc(N2C(=O)CC[C@@H]2COCc2ccc(C(=O)O)s2)cc1 (some centres unmarked) | 27
3. CCCCCC(O)c1ccc(N2C(=O)CC[C@@H]2CCCc2ccc(C(=O)O)s2)cc1 (single isomer, unassigned) [drawing 179] | 0.15
4. CCCCCC(O)c1ccc(N2C(=O)CC[C@@H]2CCCc2ccc(C(=O)O)s2)cc1 (single isomer, unassigned) [drawing 180] | 7
5. CCC(O)c1ccc(N2C(=O)CC[C@@H]2COCc2ccc(C(=O)O)s2)cc1 (some centres unmarked) | 312

a: CCCCCCC(O)c1ccc(N2C(=O)CC[C@@H]2COCc2ccc(C(=O)O)s2)cc1 (single isomer, unassigned) [drawing 153]
b: CCCCCC(=O)c1ccc(N2C(=O)CC[C@@H]2CCCc2ccc(C(=O)O)s2)cc1
[Q] Field: entry with larger EC50 (options a / b ). Kindly state the label of the option you pick.
[A] a
